Data origin: paper PMC12766730

System: PANC-1
Experiment: PDAC cell viability after 72 h of treatment, PANC-1
Type: cell-based
Conditions: Homo sapiens, PANC-1, no release-triggering enzyme, tested up to 100 μM, read-out: IC50 in PANC-1 without exogenous β-glucuronidase
pIC50: −log10 of the molar value.

Molecule	pIC50
COc1cc(O[C@@H]2O[C@H](C(=O)O)[C@@H](O)[C@H](O)[C@H]2O)cc(OC)c1CC1(O)C(=O)C2=C(OC(C)(C)CC2)c2ccccc21 (mixture of isomers) [16g]	4.59

###

Assay: HPLC stability assay of prodrugs in buffers pH 3, 5, 7, 7.4 (PBS), 9 at 37 °C for 72 h without trigger
Assay type: physicochemical
Conditions: 37 °C, 72 h, pH 3–9
Property Name: stability of the prodrug without triggering enzyme

Compound	Experimental Value
COCCOc1cc(O[C@@H]2O[C@H](C(=O)O)[C@@H](O)[C@H](O)[C@H]2O)ccc1CC1(O)C(=O)C2=C(OC(C)(C)CC2)c2ccccc21 (some centres unmarked) [16j]	fully stable
CC1(C)CCC2=C(O1)c1ccccc1C(O)(Cc1c(F)cc(O[C@@H]3O[C@H](C(=O)O)[C@@H](O)[C@H](O)[C@H]3O)cc1F)C2=O (some centres unmarked) [16d]	fully stable
CC1(C)CCC2=C(O1)c1ccccc1C(O)(Cc1ccc(O[C@@H]3O[C@H](C(=O)O)[C@@H](O)[C@H](O)[C@H]3O)cc1)C2=O (some centres unmarked) [16a]	fully stable
CCCN(C)S(=O)(=O)c1cc(CC2(O)C(=O)C3=C(OC(C)(C)CC3)c3ccccc32)ccc1O[C@@H]1O[C@H](C(=O)O)[C@@H](O)[C@H](O)[C@H]1O (single isomer, unassigned) [16e]	fully stable
CC1(C)CCC2=C(O1)c1ccccc1C(O)(Cc1cc(F)c(O[C@@H]3O[C@H](C(=O)O)[C@@H](O)[C@H](O)[C@H]3O)c(F)c1)C2=O (some centres unmarked) [16b]	fully stable
COc1cc(CC2(O)C(=O)C3=C(OC(C)(C)CC3)c3ccccc32)cc(OC)c1O[C@@H]1O[C@H](C(=O)O)[C@@H](O)[C@H](O)[C@H]1O (some centres unmarked) [16h]	fully stable
